# PROTOCOL TEXT: Metabolic stability in human plasma assessed as half life by HPLC analysis
# Type: ADME, cell-free
Where a SMILES comes first, the peptide text is derived from it. [ ]: non-standard residue; d: D form. αMeP = C[C@@]1(C(=O)O)CCCN1
VALUE KIND: half-life (h)
Numbers only, in h.

> print(dat)
                                   compound  value.kind  number
1  C[C@@]1(C(=O)N[C@@H](Cc2cnc[nH]2)C(=O)O)CCCN1C(=O)CN (H-Gly-[αMeP]-His-OH)   half-life     118

Give half-life for each of the items listed below.
1. C[C@@]1(C(=O)N[C@@H](CCCCN)C(=O)O)CCCN1C(=O)CN (H-Gly-[αMeP]-Lys-OH)
2. N=C(N)NCCC[C@H](NC(=O)[C@@H]1CCCN1C(=O)CN)C(=O)O (H-Gly-Pro-Arg-OH)
3. C[C@@]1(C(=O)N[C@@H](CCCNC(=N)N)C(=O)O)CCCN1C(=O)CN (H-Gly-[αMeP]-Arg-OH)

### Response
1. 51.6
2. 1.58
3. 132

* * *

# System: SH-SY5Y
# PROTOCOL TEXT: Neuroprotective against IFNgamma/LPS stimulated THP1 condition medium-induced neurotoxicity in human SH-SY5Y cells assessed as NO production per 10^6 cells at 100 uM for 1 hr followed by addition of THP1 conditioned medium by griess assay (reference value: 3.75 +/- 0.14 micromol/L)
# Type: functional
Where a SMILES comes first, the peptide text is derived from it. [ ]: non-standard residue; d: D form. αMeP = C[C@@]1(C(=O)O)CCCN1
VALUE KIND: Activity (µmol/L)
One number for each entry, in µmol/L.

> print(dat)
                                   compound  value.kind  display.unit  number
1  N=C(N)NCCC[C@H](NC(=O)[C@@H]1CCCN1C(=O)CN)C(=O)O (H-Gly-Pro-Arg-OH)    Activity        µmol/L    2.64
2  C[C@@]1(C(=O)N[C@@H](Cc2cnc[nH]2)C(=O)O)CCCN1C(=O)CN (H-Gly-[αMeP]-His-OH)    Activity        µmol/L    2.38
3  C[C@@]1(C(=O)N[C@@H](CCCCN)C(=O)O)CCCN1C(=O)CN (H-Gly-[αMeP]-Lys-OH)    Activity        µmol/L    2.65

### Prompt What value of Activity has been recorded for this entry: C[C@@]1(C(=O)N[C@@H](CCCNC(=N)N)C(=O)O)CCCN1C(=O)CN (H-Gly-[αMeP]-Arg-OH)
### Response 2.92

* * *

# Tested on: SH-SY5Y
# PROTOCOL TEXT: Neuroprotective against IFNgamma/LPS stimulated THP1 condition medium-induced neurotoxicity in human SH-SY5Y cells assessed as NO production per 10^6 cells at 1 uM for 1 hr followed by addition of THP1 conditioned medium by griess assay (reference value: 3.75 +/- 0.14 micromol/L)
# Type: functional
Where a SMILES comes first, the peptide text is derived from it. [ ]: non-standard residue; d: D form. αMeP = C[C@@]1(C(=O)O)CCCN1
VALUE KIND: Activity (µmol/L)
Numbers only, in µmol/L.

> print(dat)
                                   compound  value.kind  number
1  N=C(N)NCCC[C@H](NC(=O)[C@@H]1CCCN1C(=O)CN)C(=O)O (H-Gly-Pro-Arg-OH)    Activity    3.68
2  C[C@@]1(C(=O)N[C@@H](CCCNC(=N)N)C(=O)O)CCCN1C(=O)CN (H-Gly-[αMeP]-Arg-OH)    Activity    3.72
3  C[C@@]1(C(=O)N[C@@H](Cc2cnc[nH]2)C(=O)O)CCCN1C(=O)CN (H-Gly-[αMeP]-His-OH)    Activity    3.74

// moving on: another record for Activity
### Prompt # query: Activity | item C[C@@]1(C(=O)N[C@@H](CCCCN)C(=O)O)CCCN1C(=O)CN (H-Gly-[αMeP]-Lys-OH) | system: SH-SY5Y
### Response 3.74

Values compiled from ChEMBL document CHEMBL3751843.
